assay: Anti-inflammatory activity against human derived medium respond PBMC cells assessed as inhibition in stimulated IL-8 cytokine release incubated for 2 hrs in the presence of LPS/SEB/aCD28 by Luminex based sandwich immunoassay; assay type: functional, cell-based

compound	endpoint-unit	IC50
O=C1c2ccc(Nc3ccc(F)cc3F)cc2CCc2ccc(OC[C@H](O)CO)cc21 [Skepinone-L]	nM	60

* * *

target: CYP3A4 (Homo sapiens, UniProt P08684); assay: Inhibition of CYP3A4 (unknown origin) at 10 uM relative to control; type: ADME
Sequence (P08684 whole entry): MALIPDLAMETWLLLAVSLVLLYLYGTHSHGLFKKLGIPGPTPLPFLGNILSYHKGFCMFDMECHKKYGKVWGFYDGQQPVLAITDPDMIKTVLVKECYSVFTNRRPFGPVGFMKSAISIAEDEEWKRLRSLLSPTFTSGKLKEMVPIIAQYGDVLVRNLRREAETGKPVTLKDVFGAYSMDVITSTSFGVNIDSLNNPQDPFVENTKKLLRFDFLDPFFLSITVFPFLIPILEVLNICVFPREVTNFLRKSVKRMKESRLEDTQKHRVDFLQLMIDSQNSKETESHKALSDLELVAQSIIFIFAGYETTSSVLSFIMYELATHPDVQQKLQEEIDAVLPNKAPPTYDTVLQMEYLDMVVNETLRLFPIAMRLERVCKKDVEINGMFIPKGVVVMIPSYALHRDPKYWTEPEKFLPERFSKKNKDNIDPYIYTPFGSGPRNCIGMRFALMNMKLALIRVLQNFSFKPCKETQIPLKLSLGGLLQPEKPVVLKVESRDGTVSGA

compound	inhibition at 10 µM (%)
O=C1c2ccc(Nc3ccc(F)cc3F)cc2CCc2ccc(OC[C@H](O)CO)cc21 [Skepinone-L]	34

Data origin: ChEMBL document CHEMBL5696441
